Test: Intravenous pharmacokinetics in Sprague Dawley rats
Format: in vivo
Conditions: Sprague Dawley, rat, plasma, iv, 5.2 mg/kg, intravenous bolus 5.2 mg/kg, read-out: elimination half-life
measured.endpoint: half-life (min)
Numbers only here, please. The scale is min.

[Q] For the compound CC(=O)N[C@H]1CSCc2cc3cc(c2)CSC[C@H](NC(=O)[C@H](CCCCNC(=N)N)NC(=O)[C@H](Cc2ccc(O)cc2)NC(=O)[C@@H]2CCN2C(=O)[C@H](Cc2ccccc2)NC(=O)[C@H](CO)NC1=O)C(=O)N[C@@H](C)CN[C@@H](Cc1c[nH]cn1)C(=O)N[C@@H](CCC(N)=O)C(=O)N[C@@H](CC(=O)O)C(=O)N[C@@H](CC(C)C)C(=O)N[C@H](C(N)=O)CSC3 , what half-life is on record?
[A] 48

====

Assay: Plasma stability profiling Method #1 (MALDI-TOF, 35% plasma), rat plasma
Type: in vitro ADME
Conditions: Table 23; comparative stabilities estimated according to method #1
Numbered stars: 1 amine (or outer) side, 2 acyl side, 3 side chain; on linkers, the order of the positions; unused ones are H or OH. Bridge positions count the residues as written; N and C are the ends. Square brackets hold non-standard residues; d marks the D form. Peptide text beside a SMILES is read from it. Phe(4-guanidino) = N=C(N)Nc1ccc(C[C@H](N)C(=O)O)cc1; TBMB = c1c(C[*:1])cc(C[*:3])cc1C[*:2]; NMeR = CN[C@@H](CCCNC(=N)N)C(=O)O; hArg = N=C(N)NCCCC[C@H](N)C(=O)O
measured.endpoint: Observable in rat plasma, for days

CC(=O)N[C@H]1CSCc2cc3cc(c2)CSC[C@H](NC(=O)[C@H](CCCCNC(=N)N)NC(=O)[C@H](Cc2ccc(O)cc2)NC(=O)[C@@H]2CCCN2C(=O)[C@H](Cc2ccccc2)NC(=O)[C@H](CO)NC1=O)C(=O)N[C@@H](CC(C)C)C(=O)N[C@@H](Cc1c[nH]cn1)C(=O)N[C@@H](CCC(N)=O)C(=O)N[C@@H](CC(=O)O)C(=O)N[C@@H](CC(C)C)C(=O)N[C@H](C(N)=O)CSC3 [Ac-(06-34-18) Phe2 Tyr4 HomoArg5] (Ac-CSFPY[hArg]CLHQDLC-NH2; linker 1-7-13 via TBMB) : >10 days
CC(=O)N[C@H]1CSCc2cc3cc(c2)CSC[C@H](NC(=O)[C@H](CCCNC(=N)N)NC(=O)[C@H](Cc2ccc(O)cc2)NC(=O)[C@@H]2CCCN2C(=O)[C@H](Cc2ccccc2)NC(=O)[C@H](CO)NC1=O)C(=O)N[C@@H](CC(C)C)C(=O)N[C@@H](Cc1c[nH]cn1)C(=O)N[C@@H](CCC(N)=O)C(=O)N[C@@H](CC(=O)O)C(=O)N[C@@H](CC(C)C)C(=O)N[C@H](C(N)=O)CSC3 [Ac-(06-34-18) Phe2 Tyr4] (Ac-CSFPYRCLHQDLC-NH2; linker 1-7-13 via TBMB) : 2 days
CC(=O)N[C@H]1CSCc2cc3cc(c2)CSC[C@H](NC(=O)[C@H](CCCNC(=N)N)N(C)C(=O)[C@H](Cc2ccc(O)cc2)NC(=O)[C@@H]2CCCN2C(=O)[C@H](Cc2ccccc2)NC(=O)[C@H](CO)NC1=O)C(=O)N[C@@H](CC(C)C)C(=O)N[C@@H](Cc1c[nH]cn1)C(=O)N[C@@H](CCC(N)=O)C(=O)N[C@@H](CC(=O)O)C(=O)N[C@@H](CC(C)C)C(=O)N[C@H](C(N)=O)CSC3 [Ac-(06-34-18) Phe2 Tyr4 NMeArg5] (Ac-CSFPY[NMeR]CLHQDLC-NH2; linker 1-7-13 via TBMB) : >10 days

[Q] For the molecule CC(=O)N[C@H]1CSCc2cc3cc(c2)CSC[C@H](NC(=O)[C@H](Cc2ccc(NC(=N)N)cc2)NC(=O)[C@H](Cc2ccc(O)cc2)NC(=O)[C@@H]2CCCN2C(=O)[C@H](Cc2ccccc2)NC(=O)[C@H](CO)NC1=O)C(=O)N[C@@H](CC(C)C)C(=O)N[C@@H](Cc1c[nH]cn1)C(=O)N[C@@H](CCC(N)=O)C(=O)N[C@@H](CC(=O)O)C(=O)N[C@@H](CC(C)C)C(=O)N[C@H](C(N)=O)CSC3 [Ac-(06-34-18) Phe2 Tyr4 4GuanPhe5] (Ac-CSFPY[Phe(4-guanidino)]CLHQDLC-NH2; linker 1-7-13 via TBMB) , what Observable in rat plasma, for days is on record?
[A] >10 days

====

Target: human plasma Kallikrein (Homo sapiens)
Construct: purchased Stratech, UK
Sequence (P03952 20-638): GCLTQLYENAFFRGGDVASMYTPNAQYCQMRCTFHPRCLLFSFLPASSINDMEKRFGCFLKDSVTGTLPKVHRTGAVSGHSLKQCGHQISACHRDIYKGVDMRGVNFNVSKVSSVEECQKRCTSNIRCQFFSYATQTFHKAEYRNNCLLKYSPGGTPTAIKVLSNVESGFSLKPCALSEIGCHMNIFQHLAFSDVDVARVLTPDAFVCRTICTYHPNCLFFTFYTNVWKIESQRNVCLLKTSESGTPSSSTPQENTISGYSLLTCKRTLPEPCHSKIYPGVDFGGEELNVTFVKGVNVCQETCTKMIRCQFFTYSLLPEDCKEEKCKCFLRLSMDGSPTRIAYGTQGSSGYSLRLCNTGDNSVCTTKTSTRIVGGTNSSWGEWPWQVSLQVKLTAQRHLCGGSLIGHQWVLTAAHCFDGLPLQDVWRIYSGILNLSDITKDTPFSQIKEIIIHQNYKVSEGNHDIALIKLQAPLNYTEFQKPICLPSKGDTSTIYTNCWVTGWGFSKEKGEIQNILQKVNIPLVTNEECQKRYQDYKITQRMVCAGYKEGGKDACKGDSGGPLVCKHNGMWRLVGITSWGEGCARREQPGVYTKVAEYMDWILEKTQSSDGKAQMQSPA
Assay: Functional enzyme inhibition assay with fluorogenic substrate Z-PheArg-AMC, human plasma Kallikrein
Format: biochemical
Conditions: Table 24b, residue 7 modifications; read-out: Ki
Numbered stars: 1 amine (or outer) side, 2 acyl side, 3 side chain; on linkers, the order of the positions; unused ones are H or OH. Bridge positions count the residues as written; N and C are the ends. Square brackets hold non-standard residues; d marks the D form. Peptide text beside a SMILES is read from it. Ala(4-thiazolyl) = N[C@@H](Cc1cscn1)C(=O)O; TBMB = c1c(C[*:1])cc(C[*:3])cc1C[*:2]; X1 = O=C([C@H](Cn1cncn1)N[*:1])[*:2]; 2Pal = N[C@@H](Cc1ccccn1)C(=O)O; Agb = N=C(N)NCC[C@H](N)C(=O)O; Agp = N=C(N)NC[C@H](N)C(=O)O
The entries below come with measured Ki values attached.
Numbers only here, please. The scale is µM.

CC(=O)N[C@H]1CSCc2cc3cc(c2)CSC[C@H](NC(=O)[C@H](CCCNC(=N)N)NC(=O)[C@H](Cc2ccc(O)cc2)NC(=O)[C@@H]2CCCN2C(=O)[C@H](Cc2ccccc2)NC(=O)[C@H](CO)NC1=O)C(=O)N[C@@H](CC(C)C)C(=O)N[C@@H](Cc1cscn1)C(=O)N[C@@H](CCC(N)=O)C(=O)N[C@@H](CC(=O)O)C(=O)N[C@@H](CC(C)C)C(=O)N[C@H](C(N)=O)CSC3 [Ac-(06-34-18) Phe2 Tyr4 4ThiAz7] (Ac-CSFPYRCL[Ala(4-thiazolyl)]QDLC-NH2; linker 1-7-13 via TBMB) : 0.014
CC(=O)N[C@H]1CSCc2cc3cc(c2)CSC[C@H](NC(=O)[C@H](CCCNC(=N)N)NC(=O)[C@H](Cc2ccc(O)cc2)NC(=O)[C@@H]2CCCN2C(=O)[C@H](Cc2ccccc2)NC(=O)[C@H](CO)NC1=O)C(=O)N[C@@H](CC(C)C)C(=O)N[C@@H](Cc1ccccn1)C(=O)N[C@@H](CCC(N)=O)C(=O)N[C@@H](CC(=O)O)C(=O)N[C@@H](CC(C)C)C(=O)N[C@H](C(N)=O)CSC3 [Ac-(06-34-18) Phe2 Tyr4 2Pal7] (Ac-CSFPYRCL[2Pal]QDLC-NH2; linker 1-7-13 via TBMB) : 0.053
CC(=O)N[C@H]1CSCc2cc3cc(c2)CSC[C@H](NC(=O)[C@H](CCCNC(=N)N)NC(=O)[C@H](Cc2ccc(O)cc2)NC(=O)[C@@H]2CCCN2C(=O)[C@H](Cc2ccccc2)NC(=O)[C@H](CO)NC1=O)C(=O)N[C@@H](CC(C)C)C(=O)N[C@@H](CNC(=N)N)C(=O)N[C@@H](CCC(N)=O)C(=O)N[C@@H](CC(=O)O)C(=O)N[C@@H](CC(C)C)C(=O)N[C@H](C(N)=O)CSC3 [Ac-(06-34-18) Phe2 Tyr4 Agp7] (Ac-CSFPYRCL[Agp]QDLC-NH2; linker 1-7-13 via TBMB) : 0.672
CC(=O)N[C@H]1CSCc2cc3cc(c2)CSC[C@H](NC(=O)[C@H](CCCNC(=N)N)NC(=O)[C@H](Cc2ccc(O)cc2)NC(=O)[C@@H]2CCCN2C(=O)[C@H](Cc2ccccc2)NC(=O)[C@H](CO)NC1=O)C(=O)N[C@@H](CC(C)C)C(=O)N[C@@H](CCNC(=N)N)C(=O)N[C@@H](CCC(N)=O)C(=O)N[C@@H](CC(=O)O)C(=O)N[C@@H](CC(C)C)C(=O)N[C@H](C(N)=O)CSC3 [Ac-(06-34-18) Phe2 Tyr4 Agb7] (Ac-CSFPYRCL[Agb]QDLC-NH2; linker 1-7-13 via TBMB) : 2.25

Okay, now this molecule:
[Q] For the molecule CC(=O)N[C@H]1CSCc2cc3cc(c2)CSC[C@H](NC(=O)[C@H](CCCNC(=N)N)NC(=O)[C@H](Cc2ccc(O)cc2)NC(=O)[C@@H]2CCCN2C(=O)[C@H](Cc2ccccc2)NC(=O)[C@H](CO)NC1=O)C(=O)N[C@@H](CC(C)C)C(=O)N[C@@H](Cn1cncn1)C(=O)N[C@@H](CCC(N)=O)C(=O)N[C@@H](CC(=O)O)C(=O)N[C@@H](CC(C)C)C(=O)N[C@H](C(N)=O)CSC3 [Ac-(06-34-18) Phe2 Tyr4 1,2,4-TriAz7] (Ac-CSFPYRCL[X1]QDLC-NH2; linker 1-7-13 via TBMB) , what Ki is on record?
[A] 0.455
